The origin of these recorded values is ChEMBL document CHEMBL5126602.

measured-on: Serine/threonine-protein kinase PLK1 (Homo sapiens)
assay-name: Inhibition of biotin labelled PoloBoxtide binding to GST/His-fused full length PLK1 (unknown origin) expressed in baculovirus infected Sf9 cells
pIC50: −log10 of the molar value.
measured-metric: pIC50

A: Cc1ccc(NC(=S)NCCNc2nccc(C(F)(F)F)n2)c(C)c1
B: Cc1onc(-c2ccccc2)c1/C=C1\C(=O)Nc2ccccc21
Exercise: Which numeric pIC50 is bigger, that of A or that of B ? Kindly state the label of the option you pick.
Key: A

* * *

measured-on: Serine/threonine-protein kinase PLK1 (Homo sapiens)
assay-name: Inhibition of PLK1 in thymidine synchronized human HeLa cells using casein as substrate preincubated with compound for 13 hrs followed by substrate addition and measured after 12 to 36 hrs in the presence of [gamma33P]ATP by autoradiography based Western blot analysis
Format: cell-based
measured-metric: EC50 (pM)
Report as a plain number; the unit pM is understood.

Exercise: Endpoint output: EC50 of COc1ccc(CCNCc2ccc(OCc3ccc(Cl)nc3)c(OC)c2)cc1OC . Value?
Key: 200

* * *

measured-on: Serine/threonine-protein kinase PLK1 (Homo sapiens)
assay-name: Inhibition of PLK1 (unknown origin) in the presence of ATP by ADP-Glo-kinase assay
measured-metric: IC50 (µM)

O=c1cc(-c2ccccc2)oc2cc(O)c(O)c(O)c12 [BAICALEIN]: 9

I: COc1cc(O)c2c(=O)cc(-c3ccccc3)oc2c1OC [Moslosooflavone]
II: O=C1C[C@@H](c2ccccc2)Oc2cc(O)c(O)c(O)c21
Exercise: // select label with min value of measured IC50 from [ I , II ] Kindly state the label of the option you pick.
Key: II
(II: 6.3 µM, I: 10.2 µM)

* * *

measured-on: Serine/threonine-protein kinase PLK1 (Homo sapiens, UniProt P53350)
Sequence (P53350 whole entry, the tested form may be a part): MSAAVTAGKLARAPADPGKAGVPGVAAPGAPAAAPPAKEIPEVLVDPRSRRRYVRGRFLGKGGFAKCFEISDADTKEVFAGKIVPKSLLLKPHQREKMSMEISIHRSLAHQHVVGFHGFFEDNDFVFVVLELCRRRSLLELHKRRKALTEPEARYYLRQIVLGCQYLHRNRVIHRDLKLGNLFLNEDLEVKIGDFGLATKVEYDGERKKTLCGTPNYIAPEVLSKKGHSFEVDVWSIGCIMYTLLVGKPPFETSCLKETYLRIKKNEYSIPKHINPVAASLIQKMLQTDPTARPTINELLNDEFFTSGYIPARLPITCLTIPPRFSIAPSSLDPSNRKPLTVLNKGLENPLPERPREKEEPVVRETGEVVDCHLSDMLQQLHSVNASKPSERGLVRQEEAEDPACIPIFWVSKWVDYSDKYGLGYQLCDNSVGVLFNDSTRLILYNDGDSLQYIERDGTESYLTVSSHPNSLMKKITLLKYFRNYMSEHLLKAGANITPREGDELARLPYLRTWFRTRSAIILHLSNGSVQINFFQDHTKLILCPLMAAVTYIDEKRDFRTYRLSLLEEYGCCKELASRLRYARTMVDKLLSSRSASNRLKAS
assay-name: Inhibition of 5-carboxyfluoresceinGPMQSpTPLNG-OH peptide binding to PLK1 (326 to 603 residues) PBD (unknown origin) preincubated for 1 hrs with compound followed by peptide addition and measured after 1 hrs by fluorescence polarization assay
measured-metric: IC50 (µM)
Report as a plain number; the unit µM is understood.

Exercise: Endpoint output: IC50 of CC1=C/C(=N/OC(=O)c2ccc(CNC(=O)CCc3cn(CCCCCCOCCOCCNC(=O)CC45CC6CC(CC(C6)C4)C5)nn3)cc2C)C(C)=CC1=O . Value?
Key: 10.5

* * *

measured-on: Serine/threonine-protein kinase PLK1 (Homo sapiens)
assay-name: Inhibition of 5-carboxyfluoresceinGPMQSpTPLNG-OH peptide binding to PLK1 (326 to 603 residues) PBD (unknown origin) preincubated for 1 hrs with compound followed by peptide addition and measured after 75 mins by fluorescence polarization assay
measured-metric: IC50 (µM)
Report as a plain number; the unit µM is understood.

Exercise: Endpoint output: IC50 of CC1=C/C(=N/OC(=O)c2ccc(CNC(=O)CCc3cn(CCCCCCOCCOCCNC(=O)[C@H](C)CCC45CC6CC(CC(C6)C4)C5)nn3)cc2C)C(C)=CC1=O . Value?
Key: 48.2

* * *

measured-on: Serine/threonine-protein kinase PLK1 (Homo sapiens)
assay-name: Inhibition of biotinylated p-T78 peptide binding to human HA-EGFP-PLK1 expressed in HEK293-A cells using TMB as substrate incubated for 1 hrs by ELISA plate reader based analysis
measured-metric: IC50 (µM)
Report as a plain number; the unit µM is understood.

Exercise: Endpoint output: IC50 of C[C@H](OP(=O)(O)O)[C@H](NC(=O)c1ccc2c(c1)nc(CCCCc1ccccc1)n2CCc1ccccc1)C(N)=O . Value?
Key: 4.5
